molecular target: GTPase KRas (Homo sapiens, UniProt P01116, G12D); experiment: Binding affinity to biotinylated KRAS G12D mutant (unknown origin) incubated for 120 mins by SPR analysis
Sequence (P01116 whole entry G12D): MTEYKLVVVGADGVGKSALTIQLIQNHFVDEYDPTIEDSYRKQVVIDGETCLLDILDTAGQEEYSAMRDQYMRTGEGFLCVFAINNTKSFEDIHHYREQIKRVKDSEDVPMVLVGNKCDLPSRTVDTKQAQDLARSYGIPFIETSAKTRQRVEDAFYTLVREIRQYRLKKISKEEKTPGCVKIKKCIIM
Positions of bridges follow the written chain, without caps; N, C: chain ends. Non-standard residues stand in square brackets, D forms with d. Residues, ends and D or L forms follow the SMILES beside them. *: point of attachment. hPhe(3-Cl-4-CF3) = N[C@@H](CCc1ccc(C(F)(F)F)c(Cl)c1)C(=O)O; NMeGly(cPent) = CN[C@H](C(=O)O)C1CCCC1; NMeCha = CN[C@@H](CC1CCCCC1)C(=O)O; NMeChg = CN[C@H](C(=O)O)C1CCCCC1; NMeD = CN[C@@H](CC(=O)O)C(=O)O; NMeL = CN[C@@H](CC(C)C)C(=O)O; NMeA = CN[C@@H](C)C(=O)O; Piperidide = C1CCN(*)CC1; Ac5c = NC1(C(=O)O)CCCC1; Aze = O=C(O)[C@@H]1CCN1; Sar = CNCC(=O)O
readoutName: Kd (nM)

molecule="CC[C@H](C)[C@@H]1NC(=O)[C@H](C)N(C)C(=O)C[C@@H](C(=O)N2CCCCC2)N(C)C(=O)[C@H](C2CCCCC2)N(C)C(=O)C2(CCCC2)NC(=O)[C@@H]2CCCN2C(=O)[C@H](CCc2ccc(C(F)(F)F)c(Cl)c2)NC(=O)CN(C)C(=O)[C@H](CC2CCCCC2)N(C)C(=O)CN(C)C(=O)CN(C)C1=O ([NMeA]I[Sar][Sar][NMeCha][Sar][hPhe(3-Cl-4-CF3)]P[Ac5c][NMeChg][NMeD]-Piperidide; lactam N-11)" endpointresult=0.14
molecule="CC[C@H](C)[C@@H]1NC(=O)[C@H](CC(C)C)N(C)C(=O)C[C@@H](C(=O)N(C)C)N(C)C(=O)[C@H](C2CCCC2)N(C)C(=O)C2(CCCC2)NC(=O)[C@@H]2CCCN2C(=O)[C@H](CCc2ccc(C(F)(F)F)c(Cl)c2)NC(=O)CN(C)C(=O)[C@H](CC2CCCCC2)N(C)C(=O)[C@@H]2CCN2C(=O)[C@H](C)N(C)C1=O ([NMeL]I[NMeA][Aze][NMeCha][Sar][hPhe(3-Cl-4-CF3)]P[Ac5c][NMeGly(cPent)][NMeD]-NMe2; lactam N-11)" endpointresult=0.16

---

assay: Inhibition of biotin-tagged KRAS G12D mutant (unknown origin) to recombinant His-tagged SOS1 (unknown origin) protein-protein interaction incubated for 120 mins by AlphaLISA method; parameters: species or system Homo sapiens
Positions of bridges follow the written chain, without caps; N, C: chain ends. Non-standard residues stand in square brackets, D forms with d. Residues, ends and D or L forms follow the SMILES beside them. *: point of attachment. hPhe(3-Cl-4-CF3) = N[C@@H](CCc1ccc(C(F)(F)F)c(Cl)c1)C(=O)O; NMeCha = CN[C@@H](CC1CCCCC1)C(=O)O; NMeGly(cPr) = CN[C@H](C(=O)O)C1CC1; NMeD = CN[C@@H](CC(=O)O)C(=O)O; NMeL = CN[C@@H](CC(C)C)C(=O)O; NMeA = CN[C@@H](C)C(=O)O; Piperidide = C1CCN(*)CC1; Ac5c = NC1(C(=O)O)CCCC1; Aze = O=C(O)[C@@H]1CCN1; Sar = CNCC(=O)O
readoutName: IC50 (nM)

molecule="CC[C@H](C)[C@@H]1NC(=O)[C@H](CC(C)C)N(C)C(=O)C[C@@H](C(=O)N2CCCCC2)N(C)C(=O)[C@H](C2CC2)N(C)C(=O)C2(CCCC2)NC(=O)[C@@H]2CCCN2C(=O)[C@H](CCc2ccc(C(F)(F)F)c(Cl)c2)NC(=O)CN(C)C(=O)[C@H](CC2CCCCC2)N(C)C(=O)[C@@H]2CCN2C(=O)[C@H](C)N(C)C1=O ([NMeL]I[NMeA][Aze][NMeCha][Sar][hPhe(3-Cl-4-CF3)]P[Ac5c][NMeGly(cPr)][NMeD]-Piperidide; lactam N-11)" endpointresult=50

---

assay: Clearance in BALB/c nude mouse at 1 mg/kg, iv measured upto 24 hrs by LC-MS/MS analysis; type: ADME, organism-based; conditions: in vivo
Positions of bridges follow the written chain, without caps; N, C: chain ends. Non-standard residues stand in square brackets, D forms with d. Residues, ends and D or L forms follow the SMILES beside them. *: point of attachment. hPhe(3-Cl-4-CF3) = N[C@@H](CCc1ccc(C(F)(F)F)c(Cl)c1)C(=O)O; NMeGly(cPent) = CN[C@H](C(=O)O)C1CCCC1; NMeCha = CN[C@@H](CC1CCCCC1)C(=O)O; NMeD = CN[C@@H](CC(=O)O)C(=O)O; NMeL = CN[C@@H](CC(C)C)C(=O)O; Morpholide = C1CN(*)CCO1; NMeA = CN[C@@H](C)C(=O)O; Piperidide = C1CCN(*)CC1; Ac5c = NC1(C(=O)O)CCCC1; Aze = O=C(O)[C@@H]1CCN1; Sar = CNCC(=O)O
readoutName: clearance (mL/min/kg)

compound="CC[C@H](C)[C@@H]1NC(=O)[C@H](CC(C)C)N(C)C(=O)C[C@@H](C(=O)N2CCCCC2)N(C)C(=O)[C@H](C2CCCC2)N(C)C(=O)C2(CCCC2)NC(=O)[C@@H]2CCCN2C(=O)[C@H](CCc2ccc(C(F)(F)F)c(Cl)c2)NC(=O)CN(C)C(=O)[C@H](CC2CCCCC2)N(C)C(=O)[C@@H]2CCN2C(=O)[C@H](C)N(C)C1=O ([NMeL]I[NMeA][Aze][NMeCha][Sar][hPhe(3-Cl-4-CF3)]P[Ac5c][NMeGly(cPent)][NMeD]-Piperidide; lactam N-11)" endpointresult=5.9
compound="CC[C@H](C)[C@@H]1NC(=O)[C@H](CC(C)C)N(C)C(=O)C[C@@H](C(=O)N2CCOCC2)N(C)C(=O)[C@H](C2CCCC2)N(C)C(=O)C2(CCCC2)NC(=O)[C@@H]2CCCN2C(=O)[C@H](CCc2ccc(C(F)(F)F)c(Cl)c2)NC(=O)CN(C)C(=O)[C@H](CC2CCCCC2)N(C)C(=O)[C@@H]2CCN2C(=O)[C@H](C)N(C)C1=O ([NMeL]I[NMeA][Aze][NMeCha][Sar][hPhe(3-Cl-4-CF3)]P[Ac5c][NMeGly(cPent)][NMeD]-Morpholide; lactam N-11)" endpointresult=12.4

---

assay: Inhibition of biotin-tagged KRAS G12D mutant (unknown origin) to recombinant His-tagged SOS1 (unknown origin) protein-protein interaction incubated for 120 mins by AlphaLISA method; parameters: species or system Homo sapiens
Starred links: 1 amine or outer side, 2 acyl side, 3 side chain; linkers in the order of their positions; H or OH if unused. Positions of bridges follow the written chain, without caps; N, C: chain ends. Non-standard residues stand in square brackets, D forms with d. Residues, ends and D or L forms follow the SMILES beside them. *: point of attachment. hPhe(3-Cl-4-CF3) = N[C@@H](CCc1ccc(C(F)(F)F)c(Cl)c1)C(=O)O; X2 = CN([C@@H](CC(=O)[*:2])C(=O)n1cccc1)[*:1]; NMePhe(4-Cl) = CN[C@@H](Cc1ccc(Cl)cc1)C(=O)O; Phe(3-Cl) = N[C@@H](Cc1cccc(Cl)c1)C(=O)O; NMeCha = CN[C@@H](CC1CCCCC1)C(=O)O; NMeChg = CN[C@H](C(=O)O)C1CCCCC1; NMeF = CN[C@@H](Cc1ccccc1)C(=O)O; NMeI = CC[C@H](C)[C@H](NC)C(=O)O; NMeD = CN[C@@H](CC(=O)O)C(=O)O; NMeL = CN[C@@H](CC(C)C)C(=O)O; NMeA = CN[C@@H](C)C(=O)O; Piperidide = C1CCN(*)CC1; Ac5c = NC1(C(=O)O)CCCC1; Aze = O=C(O)[C@@H]1CCN1; Sar = CNCC(=O)O
readoutName: IC50 (nM)

molecule="CC[C@H](C)[C@@H]1NC(=O)[C@H](C)N(C)C(=O)C[C@@H](C(=O)n2cccc2)N(C)C(=O)[C@H]([C@@H](C)CC)N(C)C(=O)[C@H](Cc2ccccc2)N(C)C(=O)[C@H](Cc2ccccc2)NC(=O)[C@H](Cc2cccc(Cl)c2)NC(=O)CN(C)C(=O)[C@H](Cc2ccc(Cl)cc2)N(C)C(=O)CN(C)C(=O)CN(C)C1=O (cyclo(F[NMeF][NMeI][X2][NMeA]I[Sar][Sar][NMePhe(4-Cl)][Sar][Phe(3-Cl)]))" readoutname=IC50 u=nM valuerelationsign== endpointresult=87
molecule="CC[C@H](C)[C@@H]1NC(=O)[C@H](CC(C)C)N(C)C(=O)C[C@@H](C(=O)N2CCCCC2)N(C)C(=O)[C@H](C2CCCCC2)N(C)C(=O)C2(CCCC2)NC(=O)[C@@H]2CCCN2C(=O)[C@H](CCc2ccc(C(F)(F)F)c(Cl)c2)NC(=O)CN(C)C(=O)[C@H](CC2CCCCC2)N(C)C(=O)[C@@H]2CCN2C(=O)[C@H](C)N(C)C1=O ([NMeL]I[NMeA][Aze][NMeCha][Sar][hPhe(3-Cl-4-CF3)]P[Ac5c][NMeChg][NMeD]-Piperidide; lactam N-11)" readoutname=IC50 u=nM valuerelationsign=< endpointresult=2
